TARGET_UNDER_TEST: Genome polyprotein (dengue virus type 2, UniProt P29990)
ASSAY: Inhibition of NS2B-NS3 protease in DENV2proHeLa system assessed as inhibition of luciferase signal incubated for 24 hrs by luciferase reporter gene assay
Item-by-item account of pEC50
For clarity, pEC50 is expressed as the negative log10 of concentration in mol/L.

Look over these answered cases.
NC(=O)c1ccc(CNC(=O)[C@@H](NC(=O)c2cccs2)c2ccc(OCc3ccccc3)cc2)cc1	5.08
NC(=O)c1cccc(NC(=O)[C@@H](NC(=O)c2ccc(-c3ccccc3)cc2)c2ccc(OCc3ccccc3)cc2)c1	5.77
CCCCCC(=O)N[C@H](C(=O)NNc1ccc(C(N)=O)cc1)c1ccc(OCc2ccccc2)cc1	5.06
NC(=O)c1cccc(NC(=O)[C@@H](NC(=O)c2ccc(-c3ccco3)cc2)c2ccc(OCc3ccccc3)cc2)c1	5.77

Now consider a different compound.
QUERY: Return reported pEC50; argument: NC(=O)c1cccc(NC(=O)[C@@H](NC(=O)c2ccc(Oc3ccccc3)cc2)c2ccc(OCc3ccccc3)cc2)c1
RESULT: 6.14

----------
ASSAY: Cytotoxicity against human HeLa cells assessed as reduction in cell viability incubated for 24 hrs by CellTiter-Blue assay
Format: cell-based
MEASUREMENT_TYPE: CC50 at 24 h

Worked cases, answers included:
NC(=O)c1cccc(NC(=O)[C@@H](NC(=O)c2ccc(C(=O)c3ccccc3)cc2)c2ccc(OCc3ccccc3)cc2)c1	> 100 µM
N#Cc1ccc(Oc2ccc(C(=O)N[C@H](C(=O)Nc3cccc(C(N)=O)c3)c3ccc(OCc4ccccc4)cc3)cc2)cc1	> 100 µM
NC(=O)c1cccc(NC(=O)[C@@H](NC(=O)c2ccc(Oc3ccc(C(F)(F)F)cc3)cc2)c2ccc(OCc3ccccc3)cc2)c1	> 100 µM

QUERY: Look up CC50 at 24 h: CCCCCC(=O)N[C@H](C(=O)NCc1ccc(NC(C)=O)cc1)c1ccc(OCc2ccccc2)cc1
RESULT: > 100 µM

----------
ASSAY: Passive membrane permeability of the compound in phosphate buffered saline assessed as mass retention of the compound at 200 uM incubated for 5 hrs by PAMPA assay based HPLC analysis
Assay type: ADME
Measured Activity by item
Number only, in %; omit the unit.

QUERY: May I ask what Activity has been recorded for NC(=O)c1cccc(NC(=O)[C@@H](NC(=O)c2ccc(Oc3ccccc3)cc2)c2ccc(OCc3ccccc3)cc2)c1 ?
RESULT: 15

QUERY: Item under review: NC(=O)c1cccc(NC(=O)[C@@H](NC(=O)c2ccc(N3CCOCC3)cc2)c2ccc(OCc3ccccc3)cc2)c1 . Reported Activity?
RESULT: 7.1

QUERY: GET /values?readout=Activity&item= NC(=O)c1cccc(NC(=O)[C@@H](NC(=O)c2ccc(C(=O)c3ccccc3)cc2)c2ccc(OCc3ccccc3)cc2)c1
RESULT: 8.1

QUERY: Please look up its Activity: NC(=O)c1cccc(NC(=O)[C@@H](NC(=O)c2ccc(Oc3ccc4c(c3)OCO4)cc2)c2ccc(OCc3ccccc3)cc2)c1
RESULT: 8.7

----------
TARGET_UNDER_TEST: Genome polyprotein (dengue virus type 2) (UniProt P29990)
ASSAY: Inhibition of NS2B-NS3 protease in DENV2proHeLa system assessed as inhibition of luciferase signal at 12.5 uM incubated for 24 hrs by luciferase reporter gene assay
Assay type: cell-based
TEST_SETTINGS: HeLa
Class Condition met: inhibition at least 40%. Class Condition not met: inhibition below 40%.

Reference set (5 entries):
CCCCCC(=O)N[C@H](C(=O)NCc1ccc(C(N)=O)cc1)c1ccc(C(F)(F)F)cc1	Condition not met
NC(=O)c1cccc(NC(=O)[C@@H](NC(=O)c2ccc(C(=O)c3ccccc3)cc2)c2ccc(OCc3ccccc3)cc2)c1	Condition met
NC(=O)c1cccc(NC(=O)[C@@H](NC(=O)c2ccc(-c3ccc(Cl)cc3)cc2)c2ccc(OCc3ccccc3)cc2)c1	Condition met
NC(=O)c1ccc(CNC(=O)[C@@H](NC(=O)CCc2ccccc2)c2ccc(OCc3ccccc3)cc2)cc1	Condition met
CCCCC(=O)N[C@H](C(=O)NCc1ccc(C(N)=O)cc1)c1ccc(OCc2ccccc2)cc1	Condition not met

QUERY: API: above_or_equal(metric=inhibition, cutoff=40%) for item NCCCCCC(=O)N[C@H](C(=O)NCc1ccc(C(N)=O)cc1)c1ccc(OCc2ccccc2)cc1
RESULT: Condition not met

QUERY: Answer whether inhibition of CCCCCC(=O)N[C@H](C(=O)NCCc1ccc(O)cc1)c1ccc(OCc2ccccc2)cc1 is greater than or equal to 40%.
RESULT: Condition met

----------
TARGET_UNDER_TEST: Genome polyprotein (dengue virus type 2)
ASSAY: Inhibition of NS2B-NS3 protease in DENV2proHeLa system assessed as inhibition of luciferase signal at 12.5 uM incubated for 24 hrs by luciferase reporter gene assay
Format: cell-based
TEST_SETTINGS: HeLa
MEASUREMENT_TYPE: inhibition

Completed entries (count: 3):
CCCCCC(=O)N[C@H](C(=O)NCc1ccc(C(=O)O)cc1)c1ccc(OCc2ccccc2)cc1	14%
NC(=O)c1cccc(NC(=O)[C@@H](NC(=O)c2ccc(Oc3cccc(Cl)c3)cc2)c2ccc(OCc3ccccc3)cc2)c1	87%
CCCCCC(=O)N[C@@H](Cc1ccccc1)C(=O)NCc1ccc(C(N)=O)cc1	< 10%

# next molecule below
QUERY: # lookup: inhibition of CCCCCC(=O)N[C@H](C(=O)Nc1cccc(C(N)=O)c1)c1ccc(OCc2ccccc2)cc1
RESULT: 76%

----------
ASSAY: Cytotoxicity against human HeLa cells assessed as reduction in cell viability incubated for 24 hrs by CellTiter-Blue assay
Assay type: cell-based
MEASUREMENT_TYPE: CC50 at 24 h

Worked examples follow.
NC(=O)c1cccc(NC(=O)[C@@H](NC(=O)c2ccc(Oc3ccccc3)cc2)c2ccc(OCc3c(Cl)cccc3Cl)cc2)c1	> 50 µM
CCCCCC(=O)N[C@H](C(=O)N1CCC(C(=O)Nc2ccccc2)CC1)c1ccc(OCc2ccccc2)cc1	> 50 µM

QUERY: Given the entry CCCCCC(=O)N[C@H](C(=O)NCc1ccc(C(=O)O)cc1)c1ccc(OCc2ccccc2)cc1 , report its measured CC50 at 24 h.
RESULT: > 50 µM

----------
TARGET_UNDER_TEST: Genome polyprotein (dengue virus type 2) (UniProt P29990)
ASSAY: Inhibition of NS2B-NS3 protease in DENV2proHeLa system assessed as inhibition of luciferase signal at 12.5 uM incubated for 24 hrs by luciferase reporter gene assay
Assay type: cell-based
TEST_SETTINGS: HeLa
This section presents molecules with their documented inhibition values.
Please reply with the bare figure in % and do not write the unit itself.

# annotated cases, reported inhibition shown
CCCCCCCC(=O)N[C@H](C(=O)Nc1cccc(C(N)=O)c1)c1ccc(OCc2ccccc2)cc1	66
NC(=O)c1cccc(NC(=O)[C@@H](NC(=O)C2CCN(c3ccccc3)CC2)c2ccc(OCc3ccccc3)cc2)c1	46
CCCCCC(=O)N[C@H](C(=O)NCc1ccc(Cl)cc1)c1ccc(OCc2ccccc2)cc1	14
CCCCCC(=O)N[C@H](C(=O)Nc1cccc(C(N)=O)c1)c1ccc(OCc2c(Cl)cccc2Cl)cc1	65
CCCCCC(=O)N[C@@H](C(=O)NCc1ccc(C(N)=O)cc1)c1ccc(OCc2ccc(C(F)(F)F)cc2)cc1	42
CCCCCCCC(=O)N[C@H](C(=O)NCc1ccc(C(N)=O)cc1)c1ccc(OCc2ccccc2)cc1	56

Then there is this molecule:
QUERY: Could you tell me which inhibition is on file for CCCCCC(=O)N[C@H](C(=O)Nc1ccccc1C(N)=O)c1ccc(OCc2ccccc2)cc1 ?
RESULT: 13

----------
TARGET_UNDER_TEST: Genome polyprotein (dengue virus type 2) (UniProt P29990)
ASSAY: Inhibition of NS2B-NS3 protease in DENV2proHeLa system assessed as inhibition of luciferase signal at 12.5 uM incubated for 24 hrs by luciferase reporter gene assay
Format: cell-based
TEST_SETTINGS: HeLa
The entries below are paired with their reported inhibition.
Provide only the numeric value, understood in %.

Example compounds with recorded inhibition:
NC(=O)c1cccc(NC(=O)[C@@H](NC(=O)c2ccc(-c3ccccc3)cc2)c2ccc(OCc3ccccc3)cc2)c1	79
CCCCCC(=O)N[C@H](C(=O)NNc1ccc(C(N)=O)cc1)c1ccc(OCc2ccccc2)cc1	60
NC(=O)c1ccc(CNC(=O)[C@@H](NC(=O)c2ccc(OCc3ccccc3)cc2)c2ccc(OCc3ccccc3)cc2)cc1	64
N#Cc1ccc(Oc2ccc(C(=O)N[C@H](C(=O)Nc3cccc(C(N)=O)c3)c3ccc(OCc4ccccc4)cc3)cc2)cc1	79
CCCCCC(=O)N[C@H](C(=O)NCCc1ccc(C(N)=O)cc1)c1ccc(OCc2ccccc2)cc1	62

QUERY: Param item = CCCCCC(=O)N[C@H](C(=O)Nc1ccc(CO)cc1)c1ccc(OCc2ccccc2)cc1 ; retrieve measured inhibition.
RESULT: 48

QUERY: Param item = CC(C)CCOc1ccc(C(=O)N[C@H](C(=O)Nc2cccc(C(N)=O)c2)c2ccc(OCc3ccccc3)cc2)cc1 ; retrieve measured inhibition.
RESULT: 49

QUERY: Please look up its inhibition: CCCCCC(=O)N[C@H](C(=O)Nc1ccc(OC)cc1)c1ccc(OCc2ccccc2)cc1
RESULT: 10

QUERY: // lookup inhibition for NC(=O)c1cccc(NC(=O)[C@@H](NC(=O)c2ccc(Oc3ccccc3)cc2)c2ccc(Oc3ccccc3)cc2)c1
RESULT: 73

QUERY: Item under review: COc1cccc(COc2ccc([C@H](NC(=O)c3ccc(Oc4ccccc4)cc3)C(=O)Nc3cccc(C(N)=O)c3)cc2)c1 . Reported inhibition?
RESULT: 73
